// data source = ChEMBL document CHEMBL2069214

Below, each entry is listed alongside its reported IC50.
system.name: High affinity cAMP-specific and IBMX-insensitive 3',5'-cyclic phosphodiesterase 8B (Homo sapiens, UniProt O95263)
Sequence (O95263 whole entry): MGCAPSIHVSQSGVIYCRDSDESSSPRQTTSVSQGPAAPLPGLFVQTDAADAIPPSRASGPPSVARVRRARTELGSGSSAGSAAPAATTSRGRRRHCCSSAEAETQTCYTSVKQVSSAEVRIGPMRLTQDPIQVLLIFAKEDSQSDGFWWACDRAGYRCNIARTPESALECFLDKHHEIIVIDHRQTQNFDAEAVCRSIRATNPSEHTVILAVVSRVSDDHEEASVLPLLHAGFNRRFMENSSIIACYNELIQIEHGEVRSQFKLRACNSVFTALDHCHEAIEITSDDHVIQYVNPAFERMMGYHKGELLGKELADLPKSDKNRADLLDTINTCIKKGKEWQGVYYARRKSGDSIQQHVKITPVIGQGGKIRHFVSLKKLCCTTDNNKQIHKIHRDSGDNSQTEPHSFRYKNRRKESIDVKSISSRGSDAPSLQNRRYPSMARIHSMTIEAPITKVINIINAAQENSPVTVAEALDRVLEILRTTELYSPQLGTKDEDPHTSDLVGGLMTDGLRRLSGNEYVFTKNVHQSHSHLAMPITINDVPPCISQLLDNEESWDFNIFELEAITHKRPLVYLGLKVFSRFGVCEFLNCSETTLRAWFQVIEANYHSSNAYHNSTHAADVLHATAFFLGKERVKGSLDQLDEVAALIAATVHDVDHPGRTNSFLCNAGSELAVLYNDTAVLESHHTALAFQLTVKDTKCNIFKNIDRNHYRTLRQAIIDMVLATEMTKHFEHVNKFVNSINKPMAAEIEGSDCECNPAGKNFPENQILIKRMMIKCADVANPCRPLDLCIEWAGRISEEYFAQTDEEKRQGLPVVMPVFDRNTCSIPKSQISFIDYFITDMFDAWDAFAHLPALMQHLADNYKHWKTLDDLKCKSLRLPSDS

Here's what some known entries look like.
- molecule: "Cc1nc(N)c2nnn(C[C@H]3CN(Cc4nccs4)CCO3)c2n1"
  IC50: "1.3 nM"
- molecule: "FC(F)(F)c1nc(NCc2cccnc2)c2nnn(CC3CCCCO3)c2n1 (stereo not given)"
  IC50: "> 420 nM"

Asked: Can you look up the measured IC50 of Nc1nc(C2CC2)nc2c1nnn2CC1CCCN(Cc2ccccc2)C1 (stereo not given) for me?
Given back: 3620 nM

Asked: GET /values?readout=IC50&item= Nc1nc(C2CC2)nc2c1ncn2C[C@H]1CCCO1
Given back: > 2000 nM

Asked: Suppose we examine the molecule Nc1nc(C2CC2)nc2c1nnn2C[C@@H]1CCN(Cc2nccs2)C1 ; what IC50 value has been reported?
Given back: 206 nM
